Target: T1, mjCgi121 (Methanocaldococcus jannaschii, UniProt Q57646 1-145)
T1 sequence: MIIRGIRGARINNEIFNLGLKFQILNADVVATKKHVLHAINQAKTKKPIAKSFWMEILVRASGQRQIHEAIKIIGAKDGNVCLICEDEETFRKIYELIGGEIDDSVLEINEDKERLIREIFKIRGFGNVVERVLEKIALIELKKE
Test: fluorescence polarization; 20 mM HEPES pH 7.5, 100 mM NaCl, 2 mM DTT; filter binding 50 nM 32P-tRNA, 1 h, room temperature; FP 50 nM 647-CCA; NMR 25 C with 10% D2O
Details: protein: recombinant; tags: GST removed by TEV; label: 5' Alexa-647; single strand
recorded_endpoint: Kd (nM)
Entry rule: numbers only, all in nM.

Request: Provide measured Kd value, entry: CCGCCA (ssRNA) [647-CCA]
Result: 730
